TGI listing for selected compounds.
# Tested on: HT-29
# measurementDescription: Cytotoxicity against human HT-29 cells after 48 hrs by SRB assay
# Type: functional
# conditionParameters: HT-29, 48 h

{"compound": "COc1c(C)c(OC)c(OC)c2c1C[C@H]1[C@H]3c4ccccc4C[C@@H]([C@H](C#N)N1[C@H]2CO)N3C (relative stereo)", "TGI": "> 14.4 µM"}
{"compound": "COc1c(C)c(OC)c(OC)c2c1C[C@H]1[C@H]3c4ccccc4C[C@@H](C(=O)N1[C@H]2COCc1ccccc1)N3C(=O)OC(C)C", "TGI": "> 15.2 µM"}
{"compound": "COc1c(C)c(OC)c(OC)c2c1C[C@H]1[C@H](C#N)N3[C@@H](CO)c4c(c(OC)c(C)c(OC)c4OC)C[C@H]3[C@@H]2N1C (relative stereo)", "TGI": "10.5 µM"}
{"compound": "CCCN1CC(=O)N2[C@@H](Cc3c(OC)c(C)c(OC)c(OC)c3[C@@H]2COCc2ccccc2)C1 (relative stereo)", "TGI": "> 19 µM"}
{"compound": "COc1cc(C[C@H]2NC=C3Cc4c(OC)c(C)c(OC)c(OC)c4[C@H](COC(=O)/C=C/c4ccccc4)N3C2=O)c(OC)c(C)c1OC", "TGI": "> 14.6 µM"}
{"compound": "COc1ccc(C[C@H]2C(=O)N3[C@@H](COCc4ccccc4)c4c(c(OC)c(C)c(OC)c4OC)C[C@H]3[C@@H](OC)N2C(=O)OC(C)(C)C)cc1OC", "TGI": "> 14.4 µM"}
{"compound": "COc1c(C)c(OC)c(OC)c2c1C[C@H]1[C@H]3c4ccccc4C[C@@H]([C@H](C#N)N1[C@H]2COC(=O)/C=C/c1cccc(C(F)(F)F)c1)N3C (relative stereo)", "TGI": "4.52 µM"}
{"compound": "COc1c(C)c(OC)c(OC)c2c1C[C@H]1[C@H]3c4ccccc4C[C@@H](C(=O)N1[C@H]2CO)N3C(=O)OC(C)C", "TGI": "> 16.6 µM"}
{"compound": "COc1c(C)c(OC)c(OC)c2c1C[C@H]1CN(Cc3ccccc3)CC(=O)N1[C@H]2COCc1ccccc1 (relative stereo)", "TGI": "> 21.3 µM"}
{"compound": "COc1c(C)c(OC)c(OC)c2c1C[C@H]1[C@@H]3N[C@@H](Cc4ccccc43)C(=O)N1[C@H]2COC(=O)c1cccc2ccccc12 (relative stereo)", "TGI": "> 18.9 µM"}
{"compound": "COc1c(C)c(OC)c(OC)c2c1C[C@H]1CN(C(=O)OC(C)C)[C@@H](Cc3ccccc3)C(=O)N1[C@H]2COCc1ccccc1", "TGI": "> 16.3 µM"}
{"compound": "COc1c(C)c(OC)c(OC)c2c1C[C@H]1N[C@@H]2[C@@H]2Cc3c(OC)c(C)c(OC)c(OC)c3[C@H](COC(=O)c3cccc4ccccc34)N2C1=O", "TGI": "> 18 µM"}
{"compound": "COc1c(C)c(OC)c(OC)c2c1C[C@H]1[C@@H](OC)N(C(=O)OC(C)C)[C@@H](Cc3ccccc3)C(=O)N1[C@H]2COCc1ccccc1", "TGI": "> 18.8 µM"}
{"compound": "COc1cc2c(cc1O)CCN[C@]21CS[C@@H]2c3c(OC(C)=O)c(C)c4c(c3[C@H](COC1=O)N1[C@@H]2[C@H]2c3c(cc(C)c(OC)c3O)C[C@@H]([C@@H]1O)N2C)OCO4", "TGI": "2.93 µM"}
{"compound": "COc1ccc(C[C@H]2C(=O)N3[C@@H](COCc4ccccc4)c4c(c(OC)c(C)c(OC)c4OC)C[C@H]3[C@@H](OC)N2C(=O)OC(C)C)cc1OC", "TGI": "> 15.8 µM"}
{"compound": "COc1c(C)c(OC)c(OC)c2c1C[C@H]1CN(C(=O)OC(C)C)CC(=O)N1[C@H]2COCc1ccccc1", "TGI": "9.84 µM"}
{"compound": "COc1c(C)c(OC)c(OC)c2c1C[C@H]1CN(C)[C@@H](Cc3ccccc3)C(=O)N1[C@H]2COCc1ccccc1", "TGI": "> 16.2 µM"}
{"compound": "COc1c(C)c(OC)c(OC)c2c1C[C@H]1CN(Cc3ccc4ccccc4c3[N+](=O)[O-])CC(=O)N1[C@H]2COCc1ccccc1 (relative stereo)", "TGI": "9.48 µM"}
{"compound": "COc1c(C)c(OC)c(OC)c2c1C[C@H]1[C@@H]3c4c(c(OC)c(C)c(OC)c4OC)C[C@H](C(=O)N1C2COC(=O)c1cccc2ccccc12)N3C (relative stereo)", "TGI": "> 14.6 µM"}
